quantity_kind: melting point

1. CC1(CO)Cc2nnc(-c3ccc(-c4ccc(Cl)cc4)cc3Cl)n2CCS1 (stereo not drawn) [Example 19]	219 to 223 °C
2. CC1(CO)Cc2nnc(-c3ccc(-c4ccc(F)c(F)c4)cc3Cl)n2CCS1 (stereo not drawn) [Example 26]	231 to 234 °C
3. CCOc1ccccc1-c1nnc2n1CCSC(C)(C)C2 [Example 49]	136 to 137 °C
4. COc1cc(-c2ccc(F)cc2)ccc1-c1nnc2n1CCSC(C)(CO)C2 (stereo not drawn) [Example 10]	212 to 215 °C
5. CC1(CO)Cc2nnc(-c3ccc(-c4ccc(F)cc4)cc3Cl)n2CCS1 (single isomer, unassigned; (+)) [Example 57]	211 to 214 °C
6. CC1(CO)Cc2nnc(-c3ccc(-c4ccccc4F)cc3Cl)n2CCS1 (stereo not drawn) [Example 13]	147 to 149 °C
7. CC1(CO)Cc2nnc(-c3ccc(-c4ccc(F)c(Cl)c4)cc3Cl)n2CCS1 (stereo not drawn) [Example 30]	235 to 239 °C
8. COc1cc(-c2cccc(NS(C)(=O)=O)c2)ccc1-c1nnc2n1CCSC(C)(CO)C2 (stereo not drawn) [Example 55]	250 to 252 °C
9. COc1ccccc1-c1nnc2n1CCSC(C)(C)C2 [Example 47]	141 to 143 °C

###

quantity_kind: melting point

1) CC1(CO)Cc2nnc(-c3ccc(-c4cccnc4)cc3Cl)n2CCS1 (stereo not drawn)	206 to 209 °C
2) CC1(C)Cc2nnc(-c3ccc(F)cc3Cl)n2CCS1	177 to 182 °C
3) COc1cc(-c2cccc(Cl)c2)ccc1-c1nnc2n1CCSC(C)(CO)C2 (stereo not drawn)	173 to 176 °C
4) Cc1ccccc1-c1nnc2n1CCSC(C)(C)C2	106 to 107 °C
5) CC1(CO)Cc2nnc(-c3ccc(N4CCCC4)cc3Cl)n2CCS1 (stereo not drawn)	193 to 196 °C
6) CC1(CO)Cc2nnc(-c3cccc4c3ccn4-c3ccc(F)cc3)n2CCS1 (stereo not drawn)	117 to 120 °C
7) CC1(C)Cc2nnc(-c3ccccc3Cl)n2CCS1	183 to 185 °C
8) CC1(CO)Cc2nnc(-c3ccc(-c4ccccc4)cc3Cl)n2CCS1 (stereo not drawn)	166 to 169 °C
9) CC1(CO)Cc2nnc(-c3ccc(-c4cc(Cl)ccc4F)cc3Cl)n2CCS1 (stereo not drawn)	186 to 189 °C

###

Recorded melting point for the following compounds
quantity_kind: melting point

1) COc1ccc(-c2ccc(-c3nnc4n3CCSC(C)(CO)C4)c(Cl)c2)cc1 (stereo not drawn)	179 to 182 °C
2) CC1(CO)Cc2nnc(-c3cc(-c4ccc(F)cc4)ccc3Cl)n2CCS1 (stereo not drawn)	165 to 168 °C
3) COc1cc(-c2ccc(F)c(F)c2)ccc1-c1nnc2n1CCSC(C)(CO)C2 (stereo not drawn)	183 to 185 °C
4) CC1(CO)Cc2nnc(-c3ccc(-n4cccc4)cc3Cl)n2CCS1 (stereo not drawn)	110 to 112 °C
5) CC1(CO)Cc2nnc(-c3ccc(-c4cccc(C(F)(F)F)c4)cc3Cl)n2CCS1 (stereo not drawn)	195 to 198 °C
6) CC1(CO)Cc2nnc(-c3ccc(-c4ccc(F)cc4)cc3C(F)(F)F)n2CCS1 (stereo not drawn)	202 to 204 °C
7) COc1cc(-c2cccc(C#N)c2)ccc1-c1nnc2n1CCSC(C)(CO)C2 (stereo not drawn)	232 to 236 °C
8) CC1(CO)Cc2nnc(-c3ccc(-c4cccc(Cl)c4)cc3F)n2CCS1 (stereo not drawn)	165 to 168 °C
9) COc1cc(-c2ccc(F)c(Cl)c2)ccc1-c1nnc2n1CCSC(C)(CO)C2 (stereo not drawn)	238 to 241 °C
